test: Crossflow nanofiltration of CPS-pretreated water; conditions: feed = CPS column 3 effluent
Parameter Measured: nanofiltration membrane removal (%)
API: value field is a number in %; no unit string.

The compound listed as O=C(O)C(F)(F)C(F)(F)C(F)(F)F shows nanofiltration membrane removal equal to 33

---

experiment: Fixed-bed column pretreatment of spiked C-23 canal water with ZIPGEM; details: ZIPGEM, triplicate columns
Parameter Measured: average removal percentage by media

Here is how some molecules turned out for average removal percentage by media.
The molecule listed as O=C(O)C(F)(F)C(F)(F)C(F)(F)C(F)(F)C(F)(F)C(F)(F)C(F)(F)F shows average removal percentage by media equal to 14

The molecule listed as O=S(=O)(O)C(F)(F)C(F)(F)C(F)(F)C(F)(F)C(F)(F)C(F)(F)C(F)(F)C(F)(F)F shows average removal percentage by media equal to 100

---
The molecule listed as O=S(=O)(O)C(F)(F)C(F)(F)C(F)(F)C(F)(F)F shows average removal percentage by media equal to 3.3

---

test: Crossflow nanofiltration of CPS-pretreated water; conditions: feed = CPS column 3 effluent
Parameter Measured: nanofiltration membrane removal (%)
API: value field is a number in %; no unit string.

The compound listed as O=S(=O)(O)C(F)(F)C(F)(F)C(F)(F)C(F)(F)C(F)(F)C(F)(F)C(F)(F)C(F)(F)F shows nanofiltration membrane removal equal to 100

The compound listed as O=S(=O)(O)C(F)(F)C(F)(F)C(F)(F)C(F)(F)F shows nanofiltration membrane removal equal to 35

Moving on to another compound below.
The compound listed as O=C(O)C(F)(F)C(F)(F)C(F)(F)C(F)(F)C(F)(F)C(F)(F)C(F)(F)F shows nanofiltration membrane removal equal to 78
